- System: rat primary hepatocytes
Reported Endpoint: MMP assays efficacy (%) Rat Hepatocytes

>  <Compound>
O=C(Nc1ccc(Cl)cc1)Nc1ccc(Cl)c(Cl)c1

>  <Reported Endpoint>
MMP assays efficacy (%) Rat Hepatocytes

>  <Measured Result>
-113±53%

$$$$
>  <Compound>
COc1ccc(O)c(C(C)(C)C)c1

>  <Reported Endpoint>
MMP assays efficacy (%) Rat Hepatocytes

>  <Measured Result>
-53±11%

$$$$
>  <Compound>
Cl.Cl.NNCc1ccccc1 [Benzylhydrazine dihydrochloride]

>  <Reported Endpoint>
MMP assays efficacy (%) Rat Hepatocytes

>  <Measured Result>
inactive

$$$$
>  <Compound>
CCOc1nc2cccc(C(=O)OC(C)OC(=O)OC3CCCCC3)c2n1Cc1ccc(-c2ccccc2-c2nnn[nH]2)cc1 (stereo not drawn)

>  <Reported Endpoint>
MMP assays efficacy (%) Rat Hepatocytes

>  <Measured Result>
inactive

$$$$
>  <Compound>
O=C1CCCc2c1cc1ccc3cccc4ccc2c1c34 [9,10-Dihydrobenzo[a]pyren-7(8H)-one]

>  <Reported Endpoint>
MMP assays efficacy (%) Rat Hepatocytes

>  <Measured Result>
-79±35%

$$$$
>  <Compound>
CCCCCCCC[P+](CCCCCCCC)(CCCCCCCC)CCCCCCCC.[Br-] [Tetraoctylphosphonium bromide]

>  <Reported Endpoint>
MMP assays efficacy (%) Rat Hepatocytes

>  <Measured Result>
-90±21%

$$$$
>  <Compound>
CC(c1ccc(O)cc1)c1ccc(O)cc1

>  <Reported Endpoint>
MMP assays efficacy (%) Rat Hepatocytes

>  <Measured Result>
-56±19%

$$$$
>  <Compound>
Oc1c(Cl)cc(Cl)c2cccnc12

>  <Reported Endpoint>
MMP assays efficacy (%) Rat Hepatocytes

>  <Measured Result>
inactive

$$$$
>  <Compound>
O=C(Nc1ccccc1)Nc1cnns1

>  <Reported Endpoint>
MMP assays efficacy (%) Rat Hepatocytes

>  <Measured Result>
-136±46%

$$$$

---

Reported values of LUM: mean difference in luminescence (ATP content) relative to plate controls for individual entries
- Test system: Caenorhabditis elegans strain PE255
- Test Name: In vivo C. elegans ATP status assay
- Setup Conditions: 100 µM
Reported Endpoint: LUM: mean difference in luminescence (ATP content) relative to plate controls

>  <Molecule>
O=C(Nc1ccccc1)Nc1ccccc1

>  <Measured Result>
0.9744

$$$$
>  <Molecule>
O=C(Nc1ccc(Cl)cc1)Nc1ccc(Cl)c(Cl)c1

>  <Measured Result>
2.494

$$$$
>  <Molecule>
CO/C=C(/C(=O)OC)c1ccccc1COc1cccc(C(F)(F)F)n1

>  <Measured Result>
0.877

$$$$
>  <Molecule>
O=C(Nc1ccc(Oc2ccc(Cl)cc2)c(Cl)c1)c1cc(I)cc(I)c1O [Rafoxanide, reference compound]

>  <Measured Result>
0.6986

$$$$
>  <Molecule>
O=C(Nc1ccc([N+](=O)[O-])cc1Cl)c1cc(Cl)ccc1O [Niclosamide, reference compound]

>  <Measured Result>
0.1413

$$$$

---

Reported MMP assays efficacy (%) Rat Hepatocytes, rat primary hepatocytes.
Reported Endpoint: MMP assays efficacy (%) Rat Hepatocytes

>  <Compound>
CCC(C)(c1ccc(O)cc1)c1ccc(O)cc1 [Bisphenol B]

>  <Target>
rat primary hepatocytes

>  <Unit Name>
%

>  <Measured Result>
-79

$$$$
>  <Compound>
CC=O [Acetaldehyde]

>  <Target>
rat primary hepatocytes

>  <Unit Name>
%

>  <Measured Result>
-52

$$$$
>  <Compound>
O=S(=O)(c1ccc(Cl)cc1)c1ccc(Cl)cc1 [4,4'-Dichlorodiphenyl sulfone]

>  <Target>
rat primary hepatocytes

>  <Unit Name>
%

>  <Measured Result>
-72

$$$$
>  <Compound>
CCC[C@@]1(CCc2ccccc2)CC(O)=C([C@H](CC)c2cccc(NS(=O)(=O)c3ccc(C(F)(F)F)cn3)c2)C(=O)O1 [Tipranavir]

>  <Target>
rat primary hepatocytes

>  <Unit Name>
%

>  <Measured Result>
-96

$$$$
>  <Compound>
C[C@]12CC[C@@H]3c4ccc(O)cc4CC[C@H]3[C@@H]1CC[C@H]2O [Compound 17alpha-Estradiol]

>  <Target>
rat primary hepatocytes

>  <Unit Name>
%

>  <Measured Result>
-64

$$$$
>  <Compound>
Clc1ccc(C(c2ccc(Cl)cc2)C(Cl)Cl)cc1 [p,p'-DDD]

>  <Target>
rat primary hepatocytes

>  <Unit Name>
%

>  <Measured Result>
-37

$$$$

---

- System: rat primary hepatocytes
- Test Name: MMP assay in rat primary hepatocytes
- Setup Conditions: rat hepatocytes; mean ± SD of three experiments

>  <Molecule>
Cc1cc(Cc2cc(C)cc(C(C)(C)C)c2O)c(O)c(C(C)(C)C)c1

>  <Target>
rat primary hepatocytes

>  <Unit Name>
%

>  <MMP assays efficacy (%) Rat Hepatocytes>
-125

$$$$
>  <Molecule>
CC(C)(c1cc(Br)c(OCCO)c(Br)c1)c1cc(Br)c(OCCO)c(Br)c1

>  <Target>
rat primary hepatocytes

>  <Unit Name>
%

>  <MMP assays efficacy (%) Rat Hepatocytes>
-88

$$$$
>  <Molecule>
Oc1ccc2cc(SSc3ccc4cc(O)ccc4c3)ccc2c1 [6-Hydroxy-2-naphthyl disulfide]

>  <Target>
rat primary hepatocytes

>  <Unit Name>
%

>  <MMP assays efficacy (%) Rat Hepatocytes>
-68

$$$$
>  <Molecule>
O=C1c2ccccc2C(=O)c2c(O)ccc(O)c21 [1,4-Dihydroxyanthracene-9,10-dione]

>  <Target>
rat primary hepatocytes

>  <Unit Name>
%

>  <MMP assays efficacy (%) Rat Hepatocytes>
-25

$$$$
>  <Molecule>
CCCCC(CC)CN1C(=O)C2C3C=CC(C3)C2C1=O (stereo not drawn) [MGK-264]

>  <Target>
rat primary hepatocytes

>  <Unit Name>
%

>  <MMP assays efficacy (%) Rat Hepatocytes>
-55

$$$$
>  <Molecule>
c1ccc(CCCc2ccncc2)cc1 [4-(3-Phenylpropyl)pyridine]

>  <Target>
rat primary hepatocytes

>  <Unit Name>
%

>  <MMP assays efficacy (%) Rat Hepatocytes>
-82

$$$$
>  <Molecule>
COc1ccc(C(=O)c2ccc(OC)cc2O)c(O)c1

>  <Target>
rat primary hepatocytes

>  <Unit Name>
%

>  <MMP assays efficacy (%) Rat Hepatocytes>
-58

$$$$
>  <Molecule>
C=C1/C(=C\C=C2/CCC[C@]3(C)[C@@H]([C@H](C)/C=C/[C@@H](O)C4CC4)CC[C@@H]23)C[C@@H](O)C[C@@H]1O [Calcipotriene]

>  <Target>
rat primary hepatocytes

>  <Unit Name>
%

>  <MMP assays efficacy (%) Rat Hepatocytes>
-63

$$$$
>  <Molecule>
O=C(O)c1cccnc1Nc1cccc(C(F)(F)F)c1 [Niflumic acid, reference compound]

>  <Target>
rat primary hepatocytes

>  <Unit Name>
%

>  <MMP assays efficacy (%) Rat Hepatocytes>
-127

$$$$
>  <Molecule>
Nc1nc2ccc([N+](=O)[O-])cc2s1 [Compound 2-Amino-6-nitrobenzothiazole]

>  <Target>
rat primary hepatocytes

>  <Unit Name>
%

>  <MMP assays efficacy (%) Rat Hepatocytes>
-81

$$$$
>  <Molecule>
Cc1c(C(=O)NN2CCCCC2)nn(-c2ccc(Cl)cc2Cl)c1-c1ccc(Cl)cc1 [Rimonabant]

>  <Target>
rat primary hepatocytes

>  <Unit Name>
%

>  <MMP assays efficacy (%) Rat Hepatocytes>
-53

$$$$

---

- System: rat primary hepatocytes
I would appreciate it if you labelled entries 1 (yes) when MMP assays efficacy (%) Rat Hepatocytes is -60% or higher, otherwise 0 (no).

>  <Compound>
O=c1c(O)c(-c2ccc(O)cc2)oc2cc(O)cc(O)c12

>  <Group Label>
0 (no)

$$$$
>  <Compound>
O=C(NC(=O)c1c(F)cccc1F)Nc1ccc(Cl)c(Oc2ncc(C(F)(F)F)cc2Cl)c1

>  <Group Label>
0 (no)

$$$$
>  <Compound>
CC(=O)CC(c1ccc([N+](=O)[O-])cc1)c1c(O)c2ccccc2oc1=O (stereo not drawn)

>  <Group Label>
0 (no)

$$$$
>  <Compound>
COc1ccc(C(=O)c2ccccc2O)c(O)c1 [2,2'-Dihydroxy-4-methoxybenzophenone]

>  <Group Label>
1 (yes)

$$$$
>  <Compound>
CN1C(C(=O)Nc2ccccn2)=C(O)c2ccccc2S1(=O)=O

>  <Group Label>
0 (no)

$$$$
>  <Compound>
O=c1c(O)c(-c2ccc(O)c(O)c2)oc2cc(O)cc(O)c12 [Quercetin]

>  <Group Label>
0 (no)

$$$$
>  <Compound>
Nc1ccc(-c2ccc(N)cc2)cc1

>  <Group Label>
0 (no)

$$$$
>  <Compound>
CCN1CCC2(CC1)COc1cc3c(cc12)N(C(=O)c1ccc(-c2ccc(-c4nnc(C)o4)cc2C)cc1)CC3.Cl

>  <Group Label>
0 (no)

$$$$
>  <Compound>
Cc1cccc(C)c1OCC(=O)N[C@@H](Cc1ccccc1)[C@@H](O)C[C@H](Cc1ccccc1)NC(=O)[C@H](C(C)C)N1CCCNC1=O

>  <Group Label>
1 (yes)

$$$$
